Every entry's value here was drawn from paper PMC10041534.

experiment: Fluorescence spectroscopy and quantum yield measurements; format: physicochemical; conditions: CHCl3
For each entry below, report its λex value.
Could you give me the number in nm? Just the number is fine.

Value of measured λex for the entry C[N+]1=C(/C=C/C=C/C=C/C=C2\N(CCCCCC(=O)NCCCCCCn3cc(CCCCN4CCC5(CC4)OCc4ccccc45)c4ccccc43)c3ccccc3C2(C)C)C(C)(C)c2ccccc21.[I-] : 762

Value of measured λex for the entry CN(C)c1ccc2c(c1)C(=O)N(CCCn1cc(CCCCN3CCC4(CC3)OCc3ccccc34)c3ccccc31)C2=O : 395

Value of measured λex for the entry C[N+]1=C(/C=C/C=C/C=C2/N(CCCCCC(=O)Nc3ccc4ccn(CCCCN5CCC6(CC5)OCc5ccccc56)c4c3)c3ccccc3C2(C)C)C(C)(C)c2ccccc21.[I-] : 657
